target: cAMP-dependent protein kinase catalytic subunit alpha (Homo sapiens, UniProt P17612); experiment: Inhibition of PKAcalpha (unknown origin) using CREB KRREILSRRPSYR-biotinylated peptide as substrate incubated for 45 mins in presence of ATP by ELISA
pIC50: −log10 of the molar value.

[
  {
    "compoundStructure": "Nc1nc(NCCc2nc(Br)[nH]c2Br)c2nc[nH]c2n1",
    "target": "cAMP-dependent protein kinase catalytic subunit alpha (Homo sapiens, UniProt P17612)",
    "pIC50": 5.24
  },
  {
    "compoundStructure": "Nc1nc(NCCc2nc[nH]c2Br)c2nc[nH]c2n1",
    "target": "cAMP-dependent protein kinase catalytic subunit alpha (Homo sapiens, UniProt P17612)",
    "pIC50": 4.94
  },
  {
    "compoundStructure": "Nc1nc(NCCc2c[nH]cn2)c2nc[nH]c2n1",
    "target": "cAMP-dependent protein kinase catalytic subunit alpha (Homo sapiens, UniProt P17612)",
    "pIC50": 4.54
  },
  {
    "compoundStructure": "Nc1nc(NCCc2nc(Br)[nH]c2Br)c2nc(Br)[nH]c2n1",
    "target": "cAMP-dependent protein kinase catalytic subunit alpha (Homo sapiens, UniProt P17612)",
    "pIC50": 5.62
  }
]
